- experiment-description: AUC (0 to 360 mins) in C57BL/6 mouse serum at 50 mg/kg, ip administered as single dose by UPLC-MS analysis
- Type: ADME, organism-based
- Parameters: dose 50 mg/kg, time < 6 hr, route intraperitoneal
measurement-name: AUC(0-t) at 6 h (ng·h/mL)
// return numeric value only (unit: ng·h/mL, not printed)

Request: Output measured AUC(0-t) at 6 h for this item: Cl.Cn1cccc1C(=O)N[C@@H](CCn1ccnc1)C(=O)NCc1ccccc1
Result: 8460

###

- experiment-description: AUC (0 to 360 mins) in C57BL/6 mouse brain at 50 mg/kg, ip administered as single dose by UPLC-MS analysis
- Assay type: ADME, organism-based
- Parameters: time < 6 hr, dose 50 mg/kg, route intraperitoneal
measurement-name: AUC(0-t) at 6 h (ng·h/mL)
// return numeric value only (unit: ng·h/mL, not printed)

Request: Output measured AUC(0-t) at 6 h for this item: Cl.Cn1cccc1C(=O)N[C@@H](CCn1ccnc1)C(=O)NCc1ccccc1
Result: 105
